Tested on: FLT1
condition notes: concentration: 1 μM, replicates: in singlicate; n = 1
Label criterion met for high-side %Inh (at or above 10%) and criterion not met for low-side %Inh (below it).

For this compound, is measured %Inh 10% or higher? c1ccc(-c2ccnc3[nH]ccc23)cc1 criterion not met

Tell me whether %Inh is at least 10% here: Fc1ccc(-c2nc[nH]c2-c2ccncc2)cc1 criterion not met

Could you verify whether the entry COc1ccc(CSc2nnc(-c3ccc4ncsc4c3)o2)cc1C(F)(F)F shows %Inh of no less than 10%? criterion not met

Is the recorded value of %Inh equal to or greater than 10% for this compound? O=c1cc(N2CCOCC2)nc2n(Cc3cccc(Cl)c3Cl)c3ccccc3n12 criterion met

Reported %Inh at or above 10%? COC(=O)C(NC(=O)NC1CCN(c2ccnc(Nc3ccc(F)cc3)n2)C1)c1ccccc1 (stereo not drawn) criterion met

%Inh >= 10% for Cc1ccc(NC(=O)c2ccc(Cl)cc2)cc1-c1ccc(C(=O)Nc2ccncc2)cc1 ? criterion met

====

Test system: TNK1
condition notes: concentration: 1 μM, replicates: in singlicate; n = 1
metric name: %Inh (%)
State the answer as a number, implicitly in %.

%Inh in this record for Cc1ccc(NC(=O)Nc2ccc(Cl)c(C(F)(F)F)c2)cc1-c1ccc(C(=O)Nc2ccncc2)cc1 [GSK1398470] : 20

Documented %Inh of COc1ccc2cc(-c3nc(-c4ccccc4C(C)C)[nH]c3-c3ccncc3)ccc2c1 [SB-660566] : 32

Per the record, CNCc1ccc2nc(NC(=O)c3ccc(C(C)(C)C)cc3)cn2c1 has %Inh of 0

// %Inh lookup, compound = COc1nccc(-c2c(-c3ccc(F)cc3)ncn2CCCN2CCOCC2)n1 [SB-282852] , result: 0

Memo: CSc1ccc(-c2nc3n(c2-c2ccncc2)CCC3)cc1 [SKF-105561] , reported %Inh: 0

Sure, the documented %Inh for Cc1ccc(NC(=O)c2ccc(Cl)cc2)cc1-c1ccc(C(=O)Nc2ccncc2)cc1 [GSK1398467] is 9

Measured %Inh, Cn1cnc2c(N)ncnc21 [SKF-97623] : 3

// field: %Inh; key: Fc1ccc(-c2nc[nH]c2-c2ccncc2)cc1 [SB-217360] ; value = 0

New cases:
Record Cc1nccc(-c2c(-c3ccc(F)cc3)ncn2CCCN2CCOCC2)n1.Cl [SB-282975] , field %Inh: 37

# %Inh of O=C1NC(=O)C(c2ccc(Cl)cc2)=C1Nc1ccc(O)cc1 [SB-340867] = 46

Query Fc1ccc(-c2nn3cccc(F)c3c2-c2ccncc2)cc1 [GW475620] yields %Inh of 0

%Inh reported for this compound COc1ccc(CSc2nnc(-c3ccc4ncsc4c3)o2)cc1C(F)(F)F : 0

Note to self: %Inh recorded for Nc1ncnc2occ(-c3ccc4c(c3)CCN4C(=O)Cc3cc(F)ccc3F)c12 [GSK2645446] was 0

====

Test system: ACVR2B
condition notes: concentration: 1 μM, replicates: in singlicate; n = 1
metric name: %Inh (%)
State the answer as a number, implicitly in %.

Just so you know, measured %Inh for Cc1ccc(NC(=O)Nc2ccccc2)cc1-c1ccc(C(=O)Nc2ccncc2)cc1 [GSK1398471] came out at 0

response.value for FC(F)(F)c1ccccc1-c1cc(-c2c[nH]nc2-c2ccccn2)ccn1 [GW679396] (field: %Inh) = 17

// recorded %Inh for Cc1c(Cn2c(C)c(C)n3c(=O)cc(N4CCOCC4)nc23)cccc1C(F)(F)F [GSK2328680] : 0

New cases:
Looking up COc1ccc(-c2coc3ccc(-c4nnc(C)o4)cc23)cc1 , I see its %Inh listed as 0

The compound identified as O=C(Nc1n[nH]c2cc(-c3ccsc3)ccc12)C1CC1 [SB-732932] registered its %Inh at 45

For reference, reported %Inh for CS(=O)(=O)CCNCc1nc(-c2ccc3ncnc(Nc4ccc5c(cnn5Cc5ccccc5)c4)c3c2)cs1.Cl.Cl [GW569716] stands at 0

# compound COc1cccc(C2=C(Nc3cc(Cl)c(O)c(Cl)c3)C(=O)NC2=O)c1 [SB-390767] ; its %Inh = 2

The reported %Inh of the compound Cn1cnc2c(N)ncnc21 [SKF-97623] was 0

====

Measured %Inh accompanies every entry in the list below.
Test system: RIPK4
condition notes: concentration: 1 μM, replicates: in singlicate; n = 1
I only need the number, in %, no unit after it.

Record excerpt, results attached:
I looked up Cc1c(Cn2c(C)c(C)n3c(=O)cc(N4CCOCC4)nc23)cccc1C(F)(F)F [GSK2328680] and its %Inh for RIPK4 was 0

The compound COC(=O)C(NC(=O)NC1CCN(c2ccnc(Nc3ccc(F)cc3)n2)C1)c1ccccc1 (stereo not shown) [GSK1379712] , when measured on RIPK4, yielded %Inh of 13

Form field %Inh for item COC(=O)C(Cc1ccccc1)NC(=O)NC1CCN(c2ccnc(Nc3ccc(F)cc3)n2)C1 (stereo not shown) [GSK1379714] on RIPK4: 0

Kindly note: RIPK4, O=C(Nc1n[nH]c2cc(-c3ccsc3)ccc12)C1CC1 [SB-732932] , %Inh value reported: 35

Tested on RIPK4: CNCc1ccc2nc(NC(=O)c3ccc(C(C)(C)C)cc3)cn2c1 . Observed %Inh: 14

Further cases:
Recorded %Inh for Cc1ccc(NC(=O)c2ccc(Cl)cc2)cc1-c1ccc(C(=O)Nc2ccncc2)cc1 [GSK1398467] on RIPK4 was 9

%Inh of CNc1nc(-c2ccc3c(N)n[nH]c3c2)cc(N2C[C@@H](C(=O)NC3CCCCC3)OC[C@H]2C)n1 [GSK2375584] , assay on RIPK4, is 11

====

Tested on: ACVRL1
condition notes: concentration: 1 μM, replicates: in singlicate; n = 1
// values below are reported %Inh
Please state the figure in %; there is no need to write the unit.

Short answer on ACVRL1 for O=c1cc(N2CCOCC2)nc2n(Cc3cccc(Cl)c3Cl)c3ccccc3n12 , %Inh: 6

# COc1ccc(CSc2nnc(-c3ccc4ncsc4c3)o2)cc1C(F)(F)F with ACVRL1: %Inh is 2

Here COc1nccc(-c2c(-c3ccc(F)cc3)ncn2CCCN2CCOCC2)n1 was tested on ACVRL1, and its %Inh came to 0

# lookup: CNc1nc(-c2ccc3c(N)n[nH]c3c2)cc(N2C[C@@H](C(=O)Nc3ccccc3)CC[C@H]2C)n1 on ACVRL1, %Inh = 0

%Inh of COc1ccc(-c2coc3ccc(-c4nnc(C)o4)cc23)cc1 , assay on ACVRL1, is 27

Shift focus to the following entry.
Kindly note: ACVRL1, CSc1ccc(-c2nc3n(c2-c2ccncc2)CCC3)cc1 , %Inh value reported: 21

====

Test system: CSNK1A1;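 further: kd values determined as follow-up on hits from a single-replicate KINOMEscan panel screen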
metric name: pKd
Just the number, please; pKd means minus log10 of the concentration in mol/L.

Form field, pKd with CSNK1A1, item Fc1ccc(-c2nc[nH]c2-c2ccncc2)cc1 : 7.06

====

Test system: DCAMKL2
Construct: gene DCLK2
condition notes: concentration: 1 μM, replicates: in singlicate; n = 1
Quick reference for %Inh among some molecules
Numeric answer plus unit only.

Take a look at these entries with their results.
# %Inh (molecule: CNc1cc(-c2ccc3c(N)n[nH]c3c2)nc(N)n1 [GSK2224810] ) is 0%

// field: %Inh; key: CNCc1ccc2nc(NC(=O)c3ccc(C(C)(C)C)cc3)cn2c1 ; value = 4%

Form: molecule = CS(=O)(=O)CCNCc1nc(-c2ccc3ncnc(Nc4ccc(OCc5ccccc5)c(Cl)c4)c3c2)cs1.Cl [GW582764] ; %Inh = 0%

GET /value?item= Cc1ccccc1-c1cc(-c2c[nH]nc2-c2ccccn2)ccn1 [GW680061] &field=%Inh returns 6%

GET /value?item= CC[C@@H]1CO[C@H](C(=O)Nc2ccccc2)CN1c1cc(-c2ccc3c(N)n[nH]c3c2)nc(NC)n1 [GSK2376236] &field=%Inh returns 0%

COc1ccc(-c2coc3ccc(-c4nnc(C)o4)cc23)cc1 yielded %Inh of 0%

Further cases:
Query Nc1nccc(-c2c(-c3ccc(F)cc3)ncn2C2CCN(Cc3ccccc3)CC2)n1 [SB-219980] yields %Inh of 0%

Sample CC(=O)c1c(C)c2cnc(Nc3ccc(N4CCNCC4)cn3)nc2n(C2CCCC2)c1=O ; %Inh observed: 0%

// field: %Inh; key: CC(C)c1cc(-c2ccc3c(N)n[nH]c3c2)nc(N)n1 [GSK2250882] ; value = 0%

====

Measured %Inh of individual entries
System: ACVR1
condition notes: concentration: 1 μM, replicates: in singlicate; n = 1
Numbers only; they are read as %.

The molecule listed as Cc1ccc(NC(=O)Nc2ccccc2)cc1-c1ccc(C(=O)Nc2ccncc2)cc1 shows %Inh equal to 0

Continuing:
The reported %Inh of the molecule COc1ccc(Nc2nccc(N3CCC(NC(=O)c4cc5ccccc5s4)C3)n2)cc1 (centres unmarked) was 0

molecule O=C(Nc1n[nH]c2cc(-c3ccsc3)ccc12)C1CC1 , %Inh observed: 28

Query Cc1ccc(-c2nc(Nc3ccncc3)c3ccccc3n2)s1 yields %Inh of 34

For reference, reported %Inh for CC(=O)c1c(C)c2cnc(Nc3ccc(N4CCNCC4)cn3)nc2n(C2CCCC2)c1=O stands at 0
